Target or test system: HiBit-BRG1 fusion protein (Homo sapiens, UniProt P51532)
Construct: expressed in transfected cells
Sequence (P51532 whole entry, the tested form may be a part): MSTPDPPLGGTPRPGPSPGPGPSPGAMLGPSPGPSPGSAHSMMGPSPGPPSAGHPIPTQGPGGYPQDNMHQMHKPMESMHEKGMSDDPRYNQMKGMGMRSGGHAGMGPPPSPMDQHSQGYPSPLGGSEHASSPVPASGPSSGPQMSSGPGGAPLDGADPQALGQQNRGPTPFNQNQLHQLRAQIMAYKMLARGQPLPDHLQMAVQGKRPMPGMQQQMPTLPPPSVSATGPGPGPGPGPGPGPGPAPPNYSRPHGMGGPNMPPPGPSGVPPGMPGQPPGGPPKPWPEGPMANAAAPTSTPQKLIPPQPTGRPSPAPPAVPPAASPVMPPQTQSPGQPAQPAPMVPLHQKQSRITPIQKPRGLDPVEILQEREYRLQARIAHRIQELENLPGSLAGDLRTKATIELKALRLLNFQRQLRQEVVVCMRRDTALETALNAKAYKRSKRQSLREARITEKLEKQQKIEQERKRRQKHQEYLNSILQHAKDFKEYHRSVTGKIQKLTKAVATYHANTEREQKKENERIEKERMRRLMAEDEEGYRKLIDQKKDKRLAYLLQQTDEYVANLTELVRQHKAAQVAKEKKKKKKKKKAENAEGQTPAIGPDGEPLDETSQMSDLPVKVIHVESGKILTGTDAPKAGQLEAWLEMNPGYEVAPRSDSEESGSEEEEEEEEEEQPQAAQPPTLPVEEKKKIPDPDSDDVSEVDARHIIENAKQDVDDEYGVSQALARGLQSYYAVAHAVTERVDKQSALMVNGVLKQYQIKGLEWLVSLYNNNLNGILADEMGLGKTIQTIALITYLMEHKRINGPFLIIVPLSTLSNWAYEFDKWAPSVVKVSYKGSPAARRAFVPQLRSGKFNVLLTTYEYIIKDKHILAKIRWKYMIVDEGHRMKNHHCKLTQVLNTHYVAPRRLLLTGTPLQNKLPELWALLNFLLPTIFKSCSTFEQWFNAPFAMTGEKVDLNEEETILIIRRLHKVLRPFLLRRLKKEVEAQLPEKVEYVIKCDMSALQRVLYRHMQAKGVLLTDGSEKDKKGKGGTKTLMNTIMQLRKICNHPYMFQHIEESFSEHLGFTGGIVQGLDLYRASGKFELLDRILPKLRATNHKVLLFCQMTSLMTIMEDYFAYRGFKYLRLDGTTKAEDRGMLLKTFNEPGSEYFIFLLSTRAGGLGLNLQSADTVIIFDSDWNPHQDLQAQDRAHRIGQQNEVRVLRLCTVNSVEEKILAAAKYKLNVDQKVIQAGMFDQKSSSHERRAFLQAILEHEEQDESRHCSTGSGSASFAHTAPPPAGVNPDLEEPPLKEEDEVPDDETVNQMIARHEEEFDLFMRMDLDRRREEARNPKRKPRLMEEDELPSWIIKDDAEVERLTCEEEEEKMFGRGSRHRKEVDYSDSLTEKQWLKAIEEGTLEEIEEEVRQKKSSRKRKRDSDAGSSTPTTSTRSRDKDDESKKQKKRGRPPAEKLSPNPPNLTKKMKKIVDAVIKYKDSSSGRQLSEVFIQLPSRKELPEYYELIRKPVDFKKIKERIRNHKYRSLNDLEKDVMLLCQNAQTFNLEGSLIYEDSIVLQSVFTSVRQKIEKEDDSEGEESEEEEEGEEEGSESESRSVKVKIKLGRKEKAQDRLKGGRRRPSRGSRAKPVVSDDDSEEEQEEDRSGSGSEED
Experiment: HiBiT-BRG1 cell-based degradation assay (Nano-Glo HiBiT lytic detection, 24 h)
Test settings: HeLa cell line expressing HiBit-BRG1 and LgBit, read-out: BRG1 HiBit Degradation Maximum (%)
Quantity kind: Dmax

INSERT INTO assay_data (compound, measured_result) VALUES
  ('Cc1ncsc1-c1ccc([C@H](C)NC(=O)[C@@H]2C[C@@H](O)CN2C(=O)[C@@H](c2cc(N3C[C@@H]4C(c5cc6nnc(-c7ccccc7O)cc6n5C5CC5)[C@H]4C3)no2)C(C)C)cc1 (some centres unmarked)', '> 50%'),
  ('Cc1ncsc1-c1ccc([C@H](C)NC(=O)[C@@H]2C[C@@H](O)CN2C(=O)[C@@H](c2cc(-c3cnc(N4CC[C@@H](c5cc6nnc(-c7ccccc7O)cc6n5C5CC5)C4)nc3)no2)C(C)C)cc1', '> 75%'),
  ('Cc1ncsc1-c1ccc([C@H](C)NC(=O)[C@@H]2C[C@@H](O)CN2C(=O)[C@@H](c2cc(-c3cnc(N4CC[C@H](c5cc6nnc(-c7ccccc7O)cc6n5C56CC(C5)C6)C4)nc3)no2)C(C)C)cc1', '> 50%'),
  ('Cc1ncsc1-c1ccc([C@H](C)NC(=O)[C@@H]2C[C@@H](O)CN2C(=O)[C@@H](c2cc(OCCN3CC(c4cc5nnc(-c6ccccc6O)cc5n4C4COC4)C3)no2)C(C)C)cc1', '< 50%'),
  ('Cc1ncsc1-c1ccc([C@H](C)NC(=O)[C@@H]2C[C@@H](O)CN2C(=O)[C@@H](c2cc(N3CC4(CC(c5cc6nnc(-c7ccccc7O)cc6n5C)C4)C3)no2)C(C)C)cc1', '> 50%');

Just for reference, patent US20250302832A1 is where these values come from.
